Task for the reader: assign each of the following molecules its reported inhibition.
tested on: ABHD6; experiment: competitive ABPP of pPAFAH versus proteome hydrolases – biochemical, gel-based, FP-Rh fluorescence, complex proteome, SAR compounds, selectivity assay for pPAFAH inhibitor project, SAR follow-up (AID 588774); conditions: inhibition, at 1 µM, stronger effect = higher value;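 for inhibition: 0% = DMSO-only band intensity and 100% = blank gel background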
One number for each entry, in %.

Worked examples follow.
# structureSmiles, unitsText, reading
rows = [
    ("Cc1cc(N2CCN(C(=O)Oc3noc4cc(Cl)ccc34)CC2)c2ccccc2n1", "%", 53),
    ("O=C(N1CCOCC1)n1oc2cc(Cl)ccc2c1=O", "%", 58),
    ("O=C(Oc1noc2cc(Cl)ccc12)N1CCCCC1", "%", 38),
]

Take each entry in turn and give its inhibition.
1. Cc1cc(N2CCN(C(=O)n3ncc(-c4ccc([N+](=O)[O-])cc4)n3)CC2)c2ccccc2n1
2. O=C(Oc1noc2cc(Cl)ccc12)N1CCOCC1

# output
1: 59; 2: 46

Could I get inhibition for every one of these entries?
1. Cc1cc(N2CCN(C(=O)n3ncc(-c4ccc(Cl)c(Cl)c4)n3)CC2)c2ccccc2n1
2. COc1ccc(-c2cnn(C(=O)N3CCN(c4cc(C)nc5ccccc45)CC3)n2)cc1
3. Cc1cc(N2CCN(C(=O)n3ncc(-c4ccc(OC(F)(F)F)cc4)n3)CC2)c2ccccc2n1
4. Cc1cc(N2CCN(C(=O)n3oc4cc(Cl)ccc4c3=O)CC2)c2ccccc2n1
5. Cc1cc(N2CCN(C(=O)n3ncc(-c4ccccc4)n3)CC2)c2ccccc2n1

# output
1: 43; 2: 58; 3: 60; 4: 32; 5: 54

----------
test: competitive ABPP of pPAFAH versus proteome hydrolases – biochemical, gel-based, FP-Rh fluorescence, complex proteome, SAR compounds, selectivity assay for pPAFAH inhibitor project, SAR follow-up (AID 588774); conditions: ABHD6, anti-targets inhibited, at 10 µM
# anti-target count >= 3 gives class 1, anything below gives class 0

# structureSmiles, assignedLabel
data = [
    ("Cc1cc(N2CCN(C(=O)n3ncc(-c4ccccc4)n3)CC2)c2ccccc2n1", "class 1"),
    ("Cc1cc(N2CCN(C(=O)Oc3ccc(-c4ccccc4)cc3)CC2)c2ccccc2n1", "class 0"),
    ("Cc1cc(N2CCN(C(=O)Oc3ccc(C(F)(F)F)cc3)CC2)c2ccccc2n1", "class 0"),
    ("Cc1cc(N2CCN(C(=O)Oc3ccc([N+](=O)[O-])cc3)CC2)c2ccccc2n1", "class 0"),
]

# input Is anti-target count for `Cc1cc(N2CCN(C(=O)n3ncc(-c4ccc([N+](=O)[O-])cc4)n3)CC2)c2ccccc2n1` at or above 3?
# output class 1

# input Now this one: `Cc1cc(N2CCN(C(=O)Oc3ccc(C4CCCC4)cc3)CC2)c2ccccc2n1`
# output class 0

# input Now the molecule `Cc1cc(N2CCN(C(=O)n3ncc(-c4ccc(Cl)c(Cl)c4)n3)CC2)c2ccccc2n1`
# output class 1

# input Next: `Cc1cc(N2CCN(C(=O)Oc3ccc(-n4cccc4)cc3)CC2)c2ccccc2n1`
# output class 0

# input What about this molecule? `Cc1cc(N2CCN(C(=O)Oc3ccc(C4CCCCC4)cc3)CC2)c2ccccc2n1`
# output class 0

# input Another molecule: `Cc1cc(N2CCN(C(=O)Oc3ccc(-c4ccc(Br)cc4)cc3)CC2)c2ccccc2n1`
# output class 0

# input Quick one: `COc1ccc(-c2cnn(C(=O)N3CCN(c4cc(C)nc5ccccc45)CC3)n2)cc1`
# output class 1

# input Ok, now `Cc1cc(N2CCN(C(=O)n3ncc(-c4ccc(OC(F)(F)F)cc4)n3)CC2)c2ccccc2n1`
# output class 1

# input Can you handle `Cc1cc(N2CCN(C(=O)Oc3noc4cc(Cl)ccc34)CC2)c2ccccc2n1` next?
# output class 1

# input Record: `O=C(N1CCOCC1)n1oc2cc(Cl)ccc2c1=O`
# output class 1

# input Another molecule: `O=C(Oc1noc2cc(Cl)ccc12)N1CCCCC1`
# output class 0
